test_target: human α2C receptor (Homo sapiens (Human), UniProt P18825)
Sequence (P18825 whole entry): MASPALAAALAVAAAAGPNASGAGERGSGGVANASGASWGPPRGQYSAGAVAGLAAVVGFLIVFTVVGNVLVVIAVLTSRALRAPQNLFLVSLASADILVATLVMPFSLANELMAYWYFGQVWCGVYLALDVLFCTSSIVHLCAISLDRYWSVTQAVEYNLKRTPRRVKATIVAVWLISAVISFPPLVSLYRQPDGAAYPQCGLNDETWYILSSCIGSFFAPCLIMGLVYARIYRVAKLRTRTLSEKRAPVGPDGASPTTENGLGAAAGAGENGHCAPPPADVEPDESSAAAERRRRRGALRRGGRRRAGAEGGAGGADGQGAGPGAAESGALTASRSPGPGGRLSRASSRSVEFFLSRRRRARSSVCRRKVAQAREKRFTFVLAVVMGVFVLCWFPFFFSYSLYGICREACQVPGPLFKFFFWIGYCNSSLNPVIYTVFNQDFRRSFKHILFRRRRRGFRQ
assay_explanation: Antagonism against adrenoreceptor α2C (luminescence, recombinant CHO cell line, noradrenaline stimulation)
Format: cell-based
test_context: 20 nM noradrenaline
Exercise: for every item that follows, state its recorded pIC50.
# pIC50: negative log10 of molar concentration; output just the value

Q: Lab request: please report pIC50 under test system human α2C receptor (Homo sapiens (Human), UniProt P18825) for "O=C(c1ccc(N2CCS(=O)(=O)CC2)nc1)N1CCC(N2CCc3ccccc3C2)CC1"
A: 7.62

Q: Record lookup: for human α2C receptor (Homo sapiens (Human), UniProt P18825), what pIC50 belongs to "COCCNc1ccc(C(=O)N2CCC(N3CCc4ccccc4C3)CC2)cn1" ?
A: 7.66

Q: Item: "COCCNc1ccc(C(=O)N2CCC(N3CCc4ccc(F)cc4C3)CC2)cn1" Test system: human α2C receptor (Homo sapiens (Human), UniProt P18825) Read-out: pIC50 Value: ?
A: 7.89
